Exercise: for every item that follows, state its recorded pIC50.
molecular target: KRAS G12C (GMPPNP-loaded) and cRAF (Ras-binding domain) interaction (Homo sapiens (Human), UniProt P01116, C118S/C51S/C80L/G12C); experiment: Inhibition of KRAS G12C and cRAF binding (AlphaScreen); settings: KRAS G12C loaded with GMPPNP, cRaf RBD, 2 hours preincubation; read-out: Raf-1 RBD K-Ras IC50
Sequence (P01116 other isoform, or with tags, fused parts or gaps G12C/C51S/C80L/C118S): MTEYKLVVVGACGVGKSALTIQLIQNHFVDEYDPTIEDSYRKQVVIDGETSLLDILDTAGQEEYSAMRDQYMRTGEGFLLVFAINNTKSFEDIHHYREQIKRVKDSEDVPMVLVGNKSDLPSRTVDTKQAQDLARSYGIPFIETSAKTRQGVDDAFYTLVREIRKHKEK
pIC50: −log10 of the molar value.

For the compound CC(C)(C)c1noc(/C=C/C(=O)N2CCN(c3nc(OCC45CCCN4CCC5)nc4c(F)c(-c5cccc6cccc(Cl)c56)ncc34)C[C@@H]2CC#N)n1 , what pIC50 is on record? 6.30 to 7.00

For the compound N#CC[C@H]1CN(c2nc(OC[C@@]34CCCN3C[C@H](F)C4)nc3c(F)c(-c4cccc(Cl)c4C4CC4)ncc23)CCN1C(=O)/C=C/CN1C[C@@H]2C[C@H]1CO2 , what pIC50 is on record? > 8.00

For the compound Cc1nsc(/C=C/C(=O)N2CCN(c3nc(OC[C@@]45CCCN4C[C@H](F)C5)nc4c(F)c(-c5cccc6cccc(Cl)c56)ncc34)C[C@@H]2CC#N)n1 , what pIC50 is on record? > 8.00

For the compound N#CC[C@H]1CN(c2nc(OC[C@@]34CCCN3C[C@H](F)C4)nc3c(F)c(-c4cccc5cccc(Cl)c45)ncc23)CCN1C(=O)/C=C/CN1CCn2ncnc2C1 [Compound 265] , what pIC50 is on record? 6.30 to 7.00

For the compound N#CC[C@H]1CN(c2nc(OC[C@@]34CCCN3C[C@H](F)C4)nc3c(F)c(-c4cccc5cccc(Cl)c45)ncc23)CCN1C(=O)/C=C/CN1CCSCC1 , what pIC50 is on record? > 8.00

---

Exercise: for every item that follows, state its recorded IC50.
target: KRAS G12C (GMPPNP-loaded) and cRAF (Ras-binding domain) interaction (Homo sapiens (Human), UniProt P01116, C118S/C51S/C80L/G12C); test: Inhibition of KRAS G12C and cRAF binding (AlphaScreen); settings: KRAS G12C loaded with GMPPNP, cRaf RBD, 2 hours preincubation; read-out: Raf-1 RBD K-Ras IC50

For the compound CN(C)C/C=C/C(=O)N1CCN(c2nc(OC[C@@]34CCCN3C[C@H](F)C4)nc3c(F)c(-c4cccc(Cl)c4C(F)(F)F)ncc23)C[C@@H]1CC#N , what IC50 is on record? < 0.01 µM

For the compound N#CC[C@H]1CN(c2nc(OC[C@@]34CCCN3C[C@H](F)C4)nc3c(F)c(-c4cccc5ccc(F)c(Cl)c45)ncc23)CCN1C(=O)/C=C/CN1[C@@H]2CC[C@H]1COC2 , what IC50 is on record? < 0.01 µM

For the compound Cn1nnc(/C=C/C(=O)N2CCN(c3nc(OCC45CCCN4CCC5)nc4c3CCN(c3cccc5cccc(Cl)c35)C4)C[C@@H]2CC#N)n1 , what IC50 is on record? > 0.5 µM

For the compound N#CC[C@H]1CN(c2nc(OC[C@@]34CCCN3C[C@H](F)C4)nc3c(F)c(-c4cccc5ccc(F)c(F)c45)ncc23)CCN1C(=O)/C=C/CN1CC[C@@H]2COC[C@H]21 , what IC50 is on record? < 0.01 µM

For the compound N#CC[C@H]1CN(c2nc(OC[C@@]34CCCN3C[C@H](F)C4)nc3c(F)c(-c4cccc(Cl)c4C(F)F)ncc23)CCN1C(=O)/C=C/CN1[C@@H]2CC[C@H]1COC2 , what IC50 is on record? < 0.01 µM
